Tgt: Mu-type opioid receptor (Homo sapiens) + Delta-type opioid receptor (Homo sapiens) (UniProt P35372+P41143)
Sequence (P35372 whole entry, looked up): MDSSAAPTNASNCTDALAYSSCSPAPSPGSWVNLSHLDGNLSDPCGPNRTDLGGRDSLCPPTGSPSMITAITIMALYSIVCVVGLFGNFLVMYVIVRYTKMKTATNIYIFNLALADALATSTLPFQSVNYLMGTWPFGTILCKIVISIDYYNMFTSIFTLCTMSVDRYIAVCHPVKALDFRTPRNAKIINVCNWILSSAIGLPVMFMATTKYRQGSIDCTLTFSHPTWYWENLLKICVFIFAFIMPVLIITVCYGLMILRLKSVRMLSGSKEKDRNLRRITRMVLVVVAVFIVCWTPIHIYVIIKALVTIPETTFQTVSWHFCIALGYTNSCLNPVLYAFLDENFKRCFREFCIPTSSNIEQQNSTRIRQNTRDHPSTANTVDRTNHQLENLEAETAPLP
Sequence (P41143 whole entry, looked up): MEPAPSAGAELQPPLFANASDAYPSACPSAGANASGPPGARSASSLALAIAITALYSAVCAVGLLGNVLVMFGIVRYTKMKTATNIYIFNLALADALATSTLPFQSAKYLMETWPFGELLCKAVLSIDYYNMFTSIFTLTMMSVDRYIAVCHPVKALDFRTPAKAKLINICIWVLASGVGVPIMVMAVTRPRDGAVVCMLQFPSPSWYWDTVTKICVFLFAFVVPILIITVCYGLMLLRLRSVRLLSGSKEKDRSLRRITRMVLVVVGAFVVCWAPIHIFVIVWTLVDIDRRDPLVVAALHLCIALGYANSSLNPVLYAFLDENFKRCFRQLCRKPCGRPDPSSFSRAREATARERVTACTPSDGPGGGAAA
Method Notes: OPRM1-OPRD1 heterodimer inverse agonism – cell-based, luminescence, primary screen (AID 504357);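 also: 0% = cells with DMSO and 100% = wells without cells with DMSO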
Experimental Setup: cell-based MOR-DOR heterodimer luminescence, at 9.3 µM, active compounds read high
In all, about 340,000 compounds went through this assay and about 700 (0.21%) were called active. The full list was thinned out, with actives kept by preference.
Endpoint Name: inhibition (%)
Numbers only, in %.

Past entries and their recorded results:
compound=O=C(CCN1CCN(C/C=C/c2ccccc2)CC1)Nc1ccccc1Cl measured=1.43
compound="COc1cc(C(=O)OC(C)C(=O)NCC2CCCCC2)cc(NC(=O)c2ccco2)c1OC (stereo unspecified)" measured=-157
compound=O/N=C(\c1ccc2c(c1)OCCO2)C1CCCCC1 measured=10.1
compound=COc1ccc(NC(=O)CSc2nnc(Cc3ccccc3)c(=O)n2N)cc1 measured=4.15

Could you tell me inhibition for each of these compounds? They are listed below.
1. O=C(NCCN1CCOCC1)/C(=C/c1ccc(F)cc1)NC(=O)c1ccccc1
2. O=C(c1cc2ccccc2s1)N1CCN(c2ccccn2)CC1
3. Cc1cccc2c1N(CCOc1ccccc1)C(=O)C2=O
4. Cc1nc2cc(NC(=O)CSc3nc4c(C)cccc4cc3C#N)ccc2s1
5. CN(C(=O)CCn1c(=S)oc2ccccc21)C1CCCCC1
6. CC(C)OC(=O)CN1CCN(c2ccc(Cl)cc2)CC1

[out]
18.7
5.35
55.7
12.7
10.3
-2.26

Could you tell me inhibition for each of these compounds? They are listed below.
1. CC(C)(C)SCCSC1=CC(=O)CC(c2ccccc2)C1 (stereo unspecified)
2. COc1ccc(CC(=O)OC(C)C(=O)Nc2ccc(S(N)(=O)=O)cc2)cc1 (stereo unspecified)

[out]
[-50, 6.12]

Could you tell me inhibition for each of these compounds? They are listed below.
1. O=C(O)CCN1C(=O)CC2(CCCCC2)C1=O
2. COc1cc(C(=O)OCC(=O)N(CC(C)C)C2CCS(=O)(=O)C2)ccc1OCC(C)C (stereo unspecified)
3. O=C1CCC(=O)N(O)CCCCCNC(=O)CCC(=O)N(O)CCCCCNC(=O)CCC(=O)N(O)CCCCCN1
4. O=C(CNC(=O)c1ccccc1Br)NCCSc1ccc(Br)cc1
5. N#CC1=C(N)C(C#N)(C#N)[C@H](c2ccsc2)[C@H]2COCC=C12
6. COC(=O)c1cc2occc2n1Cc1nc(-c2ccccc2C)oc1C

[out]
1: 14.8; 2: 12.3; 3: 8.42; 4: 3.63; 5: 25.7; 6: -3.9

Could you tell me inhibition for each of these compounds? They are listed below.
1. C=CCn1c(C(C)NC(=O)CC)nc2ccccc21 (stereo unspecified)
2. Oc1ccc(N=Nc2nccs2)c(O)c1
3. CCCS(=O)(=O)C(=C1Nc2ccccc2N1)S(=O)(=O)CCC
4. Cc1ccc2c(c1)-c1c(ssc1=S)C(C)(C)N2C(=O)CN1C(=O)c2ccccc2C1=O
5. CCc1cccc(C)c1NS(=O)(=O)c1cc(Br)cnc1N
6. CCN1CC=C2C(C#N)=C(N)C(C#N)(C#N)[C@H](c3ccoc3)[C@H]2C1

[out]
1: 18; 2: 37.2; 3: 3.81; 4: 11.6; 5: -50.1; 6: -33.3

====

Tgt: Mu-type opioid receptor (Homo sapiens) + Delta-type opioid receptor (Homo sapiens) (UniProt P35372+P41143)
Method Notes: OPRM1-OPRD1 heterodimer inverse agonism – cell-based, luminescence, primary screen (AID 504357);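 also: 0% = cells with DMSO and 100% = wells without cells with DMSO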
Experimental Setup: cell-based MOR-DOR heterodimer luminescence, at 9.3 µM
The campaign covered roughly 340,000 compounds. About 700 (0.21%) were called active. Rule as the data show it: active = inhibition above about 22% (passing the limit was not always enough); inactive = the rest. Many of the other results were omitted from the sample, so actives are more common in it than they were.
Response enum: 1 (active), 0 (inactive)

// known answers, use as guide
compound=COC(CNC(=O)c1ccc2c(c1)ncn2-c1cc(C)cc(C)c1)OC answer_label=0
compound=O=C(Cc1c(Cl)cccc1Cl)NC1CC1 answer_label=0
compound=O=C(CCl)NNc1cccc(Cl)n1 answer_label=1

[in] Tell me the assay call for C=CCn1c(N)c(C(=O)OCC(C)C)c2nc3ccccc3nc21 please.
[out] 1

[in] Tell me the assay call for CCn1cc(/C=C2/SC(=S)NC2=O)c(C)n1 please.
[out] 0

[in] Tell me the assay call for CCNc1nc(NC(C)C)nc(OCCOC(=O)c2ccccc2)n1 please.
[out] 0

[in] Tell me the assay call for O=C1N=C(N2CCOCC2)CS1 please.
[out] 0

[in] Tell me the assay call for CCCCCCCCCCCCN1[C@@H](CC(C)=O)c2cc(F)cc(F)c2S1(=O)=O please.
[out] 0

[in] Tell me the assay call for Cc1ccc(CN(C(=O)c2sc3ccccc3c2Cl)C2CCS(=O)(=O)C2)cc1 (configuration not stated) please.
[out] 0

====

Tgt: Mu-type opioid receptor (Homo sapiens) + Delta-type opioid receptor (Homo sapiens) (UniProt P35372+P41143)
Method Notes: OPRM1-OPRD1 heterodimer inverse agonism – cell-based, luminescence, primary screen (AID 504357);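 also: 0% = cells with DMSO and 100% = wells without cells with DMSO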
Experimental Setup: cell-based MOR-DOR heterodimer luminescence, at 9.3 µM
In all, about 340,000 compounds went through this assay and about 700 (0.21%) were called active. Rule as the data show it: active = inhibition above about 22% (passing the limit was not always enough); inactive = the rest. Only a selection was taken, and actives are over-represented in it overall.
Response enum: true (1) for active, false (0) for inactive

// known answers, use as guide
molecule=Cn1c(=S)sc2ccc3ccccc3c21 answer_label="false (0)"
molecule=CN(/N=C/c1ccccc1)C(=S)c1ccccc1 answer_label="false (0)"
molecule=CCOC(=O)C1CCN(C(=O)CN2C(=O)c3cccnc3Oc3ccc(C)cc32)CC1 answer_label="false (0)"
molecule="CCOCCCNC(=O)C(NC(=O)Cc1c[nH]c2ccccc12)c1ccc(OC)cc1 (stereo not drawn)" answer_label="false (0)"
molecule=CC(C)(C)c1nnc(NC(=O)C2c3ccccc3Oc3ccccc32)s1 answer_label="false (0)"
molecule="CC(OC(=O)CN1C(=O)c2ccccc2C1=O)C(=O)c1ccccc1 (stereo not drawn)" answer_label="false (0)"
molecule="CC(=O)N1c2ccc(S(=O)(=O)N3CCCC(C(=O)Nc4ccc(C)cc4C)C3)cc2CC1C (stereo not drawn)" answer_label="false (0)"
molecule="CC1CCCC(N2CCN(C(=O)c3ccc(F)cc3)CC2)C1 (stereo not drawn)" answer_label="false (0)"

[in] Tell me the assay call for Cc1c(C(=O)N(Cc2ccccc2)Cc2cccnc2)cnn1-c1ccc(F)cc1 please.
[out] false (0)

[in] Tell me the assay call for CN(O)C(=S)c1ccccc1 please.
[out] true (1)

[in] Tell me the assay call for Nc1ccc2c(c1)C(O)c1ccc(Cl)cc1-2 (stereo not drawn) please.
[out] false (0)

[in] Tell me the assay call for CCCNC(=O)CCn1cc(-c2ccc(OC)cc2)nc1CCN please.
[out] false (0)

[in] Tell me the assay call for O=C(c1ccco1)N1CCN(C(=O)C2CC(c3ccc(Cl)c(Cl)c3)=NO2)CC1 (stereo not drawn) please.
[out] false (0)
